- Assay Target: DAPK1 (human) (UniProt P53355)
- Sequence (P53355 whole entry, looked up): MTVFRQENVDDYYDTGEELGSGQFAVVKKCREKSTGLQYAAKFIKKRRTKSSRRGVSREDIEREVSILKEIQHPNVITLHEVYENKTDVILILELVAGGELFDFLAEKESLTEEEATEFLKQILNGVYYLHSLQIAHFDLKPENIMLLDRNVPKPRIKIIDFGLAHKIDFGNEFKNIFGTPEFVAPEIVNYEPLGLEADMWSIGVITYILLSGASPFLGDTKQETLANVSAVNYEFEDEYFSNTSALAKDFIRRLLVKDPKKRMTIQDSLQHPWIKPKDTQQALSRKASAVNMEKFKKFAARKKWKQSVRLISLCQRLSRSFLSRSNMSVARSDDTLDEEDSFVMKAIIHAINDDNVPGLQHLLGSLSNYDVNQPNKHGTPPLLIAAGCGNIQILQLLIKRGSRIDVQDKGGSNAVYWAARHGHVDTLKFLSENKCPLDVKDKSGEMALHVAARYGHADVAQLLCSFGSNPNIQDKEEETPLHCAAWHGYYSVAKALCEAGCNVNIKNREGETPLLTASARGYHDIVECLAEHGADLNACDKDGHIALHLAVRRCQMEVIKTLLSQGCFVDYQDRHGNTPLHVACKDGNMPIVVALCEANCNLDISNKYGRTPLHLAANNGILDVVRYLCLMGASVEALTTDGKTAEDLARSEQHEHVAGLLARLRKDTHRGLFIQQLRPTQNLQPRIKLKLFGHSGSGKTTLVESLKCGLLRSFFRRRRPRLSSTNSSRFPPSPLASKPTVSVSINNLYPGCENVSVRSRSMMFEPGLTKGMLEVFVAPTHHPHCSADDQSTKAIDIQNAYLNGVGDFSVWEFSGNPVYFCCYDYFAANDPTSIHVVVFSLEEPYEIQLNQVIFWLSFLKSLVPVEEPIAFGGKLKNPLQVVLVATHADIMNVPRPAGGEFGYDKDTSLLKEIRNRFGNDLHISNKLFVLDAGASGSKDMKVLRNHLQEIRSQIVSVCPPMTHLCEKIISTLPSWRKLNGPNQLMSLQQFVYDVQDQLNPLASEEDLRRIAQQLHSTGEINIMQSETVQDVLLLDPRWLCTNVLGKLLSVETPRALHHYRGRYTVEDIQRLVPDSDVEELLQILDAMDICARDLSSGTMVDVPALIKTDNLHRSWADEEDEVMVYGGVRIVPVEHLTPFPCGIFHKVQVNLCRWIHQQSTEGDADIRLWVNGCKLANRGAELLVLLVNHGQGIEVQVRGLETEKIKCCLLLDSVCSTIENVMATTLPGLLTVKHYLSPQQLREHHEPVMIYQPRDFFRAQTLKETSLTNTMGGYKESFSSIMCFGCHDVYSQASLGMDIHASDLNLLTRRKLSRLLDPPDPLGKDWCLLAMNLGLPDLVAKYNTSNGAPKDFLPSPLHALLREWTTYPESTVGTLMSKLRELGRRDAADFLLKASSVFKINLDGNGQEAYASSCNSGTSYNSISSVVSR
- Test Name: radiometric filter-binding kinase assay, Kinase HotSpot
- Run Parameters: compound 0.5 µM; ATP 10 µM
Property: residual activity (%)
Kindly provide the numeric value in % only, without the unit symbol.

Consider the compound shown here: CCCCc1c(-c2ccc(OC)cc2)[nH]c2nccnc12 What is its recorded residual activity?
90.6

Next:
# get_value(readout='residual activity', item= NC(=O)c1cccc(-c2cc(Nc3ccc(OC(F)(F)F)cc3)ncn2)c1 )
81.1

Entry under review: Cc1nc(-c2ccccc2)c(-c2ccncc2)o1 . Reported residual activity?
124

# lookup: residual activity of O=C(c1cc2cc(O)ccc2[nH]1)c1cc2cc(O)ccc2[nH]1
101

What measured residual activity goes with COc1ccc(S(=O)(=O)N(CCO)c2ccccc2CN(C)C/C=C/c2ccc(Cl)cc2)cc1 ?
120

Consider the compound O=C1Nc2ccc(Br)cc2/C1=C\c1cc2c([nH]1)CCCC2 and give its measured residual activity.
111

Give the measured residual activity of COc1cc2ncnc(Nc3ccc(OCc4ccccc4)cc3)c2cc1OC .
98.5

I have this compound here, CN(C)S(=O)(=O)c1ccc2c(c1)/C(=C/c1cc3c([nH]1)CCCC3)C(=O)N2 , and I need its recorded residual activity.
102

# get_value(readout='residual activity', item= CN(C)c1ccc(/C=C2\C(=O)Nc3ccccc32)cc1 )
92.2
